The values you see were collected from ChEMBL document CHEMBL6109144.

test summary: Induction of insulin release in human EndoC-betaH5 cells incubated for 1 hr by ELISA analysis
Format: functional, cell-based
conditions used: EndoC-betaH5, 1 h
pEC50: −log10 of the molar value.
recorded metric: pEC50

{"mol": "O=C(O)c1ccc2nc(CN3CC=C(c4cccc(OCc5ccc(C6CC(F)(F)C6)cc5F)n4)CC3)n(C[C@@H]3CCO3)c2n1", "recorded metric": "pEC50", "value reported": 7.64}

====

target entity: Glucagon-like peptide 1 receptor (Homo sapiens)
Sequence (P43220 whole entry): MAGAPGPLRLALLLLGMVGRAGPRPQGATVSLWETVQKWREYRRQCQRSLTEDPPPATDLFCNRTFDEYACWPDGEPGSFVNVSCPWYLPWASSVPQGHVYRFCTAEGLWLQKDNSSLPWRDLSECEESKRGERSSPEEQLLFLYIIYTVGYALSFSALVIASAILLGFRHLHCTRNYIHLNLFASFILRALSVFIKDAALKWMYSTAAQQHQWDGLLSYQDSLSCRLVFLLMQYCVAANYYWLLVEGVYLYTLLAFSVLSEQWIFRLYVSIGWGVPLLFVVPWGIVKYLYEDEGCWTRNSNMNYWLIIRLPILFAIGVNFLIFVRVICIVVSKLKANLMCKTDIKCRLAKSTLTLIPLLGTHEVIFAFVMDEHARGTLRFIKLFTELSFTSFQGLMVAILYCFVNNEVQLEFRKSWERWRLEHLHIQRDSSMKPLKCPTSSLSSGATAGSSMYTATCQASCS
test summary: Agonist activity at N-terminal hemagglutinin-tagged human GLP-1R expressed in CHO cells co-transfected with pcDNA3.0 assessed as increase in intracellular cAMP accumulation incubated for 30 mins by microplate reader analysis
Assay type: functional, cell-based

{"mol": "O=C(O)c1cc(F)c2nc(CN3CCC(c4cccc(OCc5ccc(CC(F)(F)F)cc5F)n4)CC3)n(C[C@@H]3CCO3)c2c1", "EC50 / nM": 0.35}
{"mol": "O=C(O)c1cc(F)c2nc(CN3CCN(c4cccc(OCc5ccc(CC(F)F)cc5F)n4)CC3)n(C[C@@H]3CCO3)c2c1", "EC50 / nM": 0.086}
{"mol": "O=C(O)c1cc(F)c2nc(CN3CC=C(c4cccc(OCc5ccc(CC(F)F)cc5F)n4)CC3)n(C[C@@H]3CCO3)c2c1", "EC50 / nM": 0.015}
{"mol": "O=C(O)c1ccc2nc(CN3CCC(c4cccc(OCc5ccc(C6CC(F)(F)C6)cc5F)n4)CC3)n(C[C@@H]3CCO3)c2c1", "EC50 / nM": 0.088}
{"mol": "O=C(O)c1ccc2nc(CN3CCC(Oc4cccc(Cc5ccc(Cl)c6occc56)n4)CC3)n(C[C@@H]3CCO3)c2n1", "EC50 / nM": 0.35}
{"mol": "O=C(O)c1cc2c(nc(CN3CCC(Oc4cccc(Cc5ccccc5)n4)CC3)n2C[C@@H]2CCO2)s1", "EC50 / nM": 87.7}
{"mol": "O=C(O)c1cc(F)c2nc(CN3CC=C(c4cccc(OCc5ccc(C6CC(F)(F)C6)cc5F)n4)CC3)n(C[C@@H]3CCO3)c2c1", "EC50 / nM": 0.016}

====

target entity: Glucagon-like peptide 1 receptor (Homo sapiens)
test summary: Agonist activity at N-terminal hemagglutinin-tagged human GLP-1R expressed in CHO cells co-transfected with pcDNA3.0 assessed as increase in intracellular cAMP accumulation incubated for 30 mins by microplate reader analysis
Assay type: functional, cell-based

{"mol": "Cn1ncc2ccc(Cc3cccc(OC4CCN(Cc5nc6sc(C(=O)O)cc6n5C[C@@H]5CCO5)CC4)n3)cc21", "EC50, nM": 258}
{"mol": "CC1(c2ccc(COc3cccc(C4=CCN(Cc5nc6ccc(C(=O)O)nc6n5C[C@@H]5CCO5)CC4)n3)c(F)c2)CC(F)(F)C1", "EC50, nM": 2.91}
{"mol": "CC1(c2ccc(COc3cccc(C4=CCN(Cc5nc6ccc(C(=O)O)cc6n5C[C@@H]5CCO5)CC4)n3)c(F)c2)CC(F)(F)C1", "EC50, nM": 6.1}

====

target entity: hERG (KCNH2) (Homo sapiens, UniProt Q12809)
Sequence (Q12809 whole entry): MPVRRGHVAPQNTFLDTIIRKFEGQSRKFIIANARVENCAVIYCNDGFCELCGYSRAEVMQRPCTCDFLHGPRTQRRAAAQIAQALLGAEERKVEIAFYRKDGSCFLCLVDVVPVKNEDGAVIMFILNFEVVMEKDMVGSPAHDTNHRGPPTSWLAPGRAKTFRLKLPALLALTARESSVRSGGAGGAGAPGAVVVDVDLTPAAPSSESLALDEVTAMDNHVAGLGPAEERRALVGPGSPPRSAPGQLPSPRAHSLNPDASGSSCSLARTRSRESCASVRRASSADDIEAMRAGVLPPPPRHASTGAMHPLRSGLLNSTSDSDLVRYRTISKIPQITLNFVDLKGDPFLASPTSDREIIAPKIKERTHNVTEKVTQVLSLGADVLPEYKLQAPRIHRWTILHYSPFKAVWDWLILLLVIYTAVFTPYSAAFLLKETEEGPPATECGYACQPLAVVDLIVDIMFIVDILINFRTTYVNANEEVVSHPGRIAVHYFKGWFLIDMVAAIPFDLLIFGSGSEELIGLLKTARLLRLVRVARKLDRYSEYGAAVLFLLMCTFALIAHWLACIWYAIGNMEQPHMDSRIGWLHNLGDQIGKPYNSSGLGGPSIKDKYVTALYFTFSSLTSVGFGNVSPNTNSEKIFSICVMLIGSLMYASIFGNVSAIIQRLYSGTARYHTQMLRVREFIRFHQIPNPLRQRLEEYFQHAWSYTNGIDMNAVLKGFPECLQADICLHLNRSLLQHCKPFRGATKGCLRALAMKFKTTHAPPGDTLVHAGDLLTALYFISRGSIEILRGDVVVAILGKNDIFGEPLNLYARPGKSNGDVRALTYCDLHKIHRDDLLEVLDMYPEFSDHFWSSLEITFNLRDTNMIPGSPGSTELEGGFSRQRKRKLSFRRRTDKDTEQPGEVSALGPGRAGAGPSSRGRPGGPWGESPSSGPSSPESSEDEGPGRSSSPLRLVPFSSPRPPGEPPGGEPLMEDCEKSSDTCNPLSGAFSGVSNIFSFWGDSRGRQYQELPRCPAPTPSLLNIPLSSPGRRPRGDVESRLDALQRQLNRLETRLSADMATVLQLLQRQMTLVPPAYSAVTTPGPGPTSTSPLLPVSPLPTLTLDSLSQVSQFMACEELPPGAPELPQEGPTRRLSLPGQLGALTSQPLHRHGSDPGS
test summary: Inhibition of hERG at 1 uM at -80 mV holding potential by whole-cell patch clamp analysis relative to control
Format: toxicity
inhibition at 1 µM values by entry
recorded metric: inhibition at 1 µM

{"compound": "O=C(O)c1ccc2nc(CN3CCC(Oc4cccc(COc5ccc6cnn(CC(F)F)c6c5F)n4)CC3)n(C[C@@H]3CCO3)c2n1", "value reported": "5.1%"}
{"compound": "N#Cc1ccc(COc2cccc(C3CCN(Cc4nc5ccc(C(=O)O)cc5n4C[C@@H]4CCO4)CC3)n2)c(F)c1 [DANUGLIPRON]", "value reported": "8.4%"}
{"compound": "O=C(O)c1ccc2nc(CN3CCC(Oc4cccc(COc5ccc6cnn(CC(F)F)c6c5)n4)CC3)n(C[C@@H]3CCO3)c2n1", "value reported": "-0.55%"}
{"compound": "O=C(O)c1ccc2nc(CN3CC=C(c4cccc(OCc5ccc(C6CC(F)(F)C6)cc5F)n4)CC3)n(C[C@@H]3CCO3)c2c1", "value reported": "4.53%"}
{"compound": "O=C(O)c1ccc2nc(CN3CCC(Oc4cccc(COc5ccc(Cl)c6ccoc56)n4)CC3)n(C[C@@H]3CCO3)c2n1", "value reported": "1%"}
{"compound": "O=C(O)c1ccc2nc(CN3CC=C(c4cccc(OCc5ccc(C6CC(F)(F)C6)cc5F)n4)CC3)n(C[C@@H]3CCO3)c2n1", "value reported": "0.6%"}
{"compound": "O=C(O)c1ccc2nc(CN3CCC(Oc4cccc(Cc5ccc(Cl)c6c5OCC6)n4)CC3)n(C[C@@H]3CCO3)c2n1", "value reported": "0.7%"}
{"compound": "O=C(O)c1ccc2nc(Cc3ccc(-c4cccc(OCc5ccc(C6CC(F)(F)C6)cc5F)n4)cc3F)n(C[C@@H]3CCO3)c2c1", "value reported": "0.58%"}

====

CL/F values by entry
test summary: Observed apparent oral clearance in Sprague-Dawley rat at 5 mg/kg, po measured up to 24 hrs by LC-MS/MS analysis
Assay type: ADME, organism-based
conditions used: in vivo

{"mol": "COc1cc(C(=O)O)cc2c1nc(CN1CC=C(c3cccc(OCc4ccc(C5CC(F)(F)C5)cc4F)n3)CC1)n2C[C@@H]1CCO1", "unit spec": "mL/min/kg", "CL/F": 1040}
{"mol": "O=C(O)c1ccc2nc(Cc3ccc(-c4cccc(OCc5ccc(C6CC(F)(F)C6)cc5F)n4)cc3F)n(C[C@@H]3CCO3)c2c1", "unit spec": "mL/min/kg", "CL/F": 963}
{"mol": "O=C(O)c1ccc2nc(CN3CCC(Oc4cccc(Cc5ccc(Cl)c6c5OCC6)n4)CC3)n(C[C@@H]3CCO3)c2n1", "unit spec": "mL/min/kg", "CL/F": 458}
{"mol": "O=C(O)c1cc(F)c2nc(CN3CCC(c4cccc(OCc5ccc(C6CC(F)(F)C6)cc5F)n4)CC3)n(C[C@@H]3CCO3)c2c1", "unit spec": "mL/min/kg", "CL/F": 375}
{"mol": "O=C(O)c1ccc2nc(CN3CCC(Oc4cccc(COc5ccc6cnn(CC(F)F)c6c5)n4)CC3)n(C[C@@H]3CCO3)c2n1", "unit spec": "mL/min/kg", "CL/F": 601}
{"mol": "COc1cc(C(=O)O)cc2c1nc(CN1CCC(c3cccc(OCc4ccc(C5CC(F)(F)C5)cc4F)n3)CC1)n2C[C@@H]1CCO1", "unit spec": "mL/min/kg", "CL/F": 1490}
{"mol": "O=C(O)c1ccc2nc(CN3CCC(Oc4cccc(COc5ccc(Cl)c6ccoc56)n4)CC3)n(C[C@@H]3CCO3)c2n1", "unit spec": "mL/min/kg", "CL/F": 448}

====

target entity: Glucagon-like peptide 1 receptor (Homo sapiens)
test summary: Agonist activity at human GLP-1R expressed in HEK293 cells assessed as beta-arrestin1 recruitment incubated for 5 mins by bioluminescence based Envision multiplate reader analysis
Format: functional, cell-based
pEC50: −log10 of the molar value.

{"mol": "O=C(O)c1ccc2nc(CN3CC=C(c4cccc(OCc5ccc(C6CC(F)(F)C6)cc5F)n4)CC3)n(C[C@@H]3CCO3)c2n1", "target entity": "Glucagon-like peptide 1 receptor (Homo sapiens)", "pEC50": 5.69}

====

target entity: Glucagon-like peptide 1 receptor (Homo sapiens)
test summary: Agonist activity at N-terminal hemagglutinin-tagged human GLP-1R expressed in CHO cells co-transfected with pcDNA3.0 assessed as increase in intracellular cAMP accumulation incubated for 30 mins by microplate reader analysis
Format: functional, cell-based
pEC50: −log10 of the molar value.

{"mol": "O=C(O)c1cc2c(nc(CN3CCC(Oc4ccnc(COc5ccc(Cl)cc5)n4)CC3)n2C[C@@H]2CCO2)s1", "target entity": "Glucagon-like peptide 1 receptor (Homo sapiens)", "pEC50": 8.43}
{"mol": "N#Cc1ccc(COc2cccc(OC3CCN(Cc4nc5sc(C(=O)O)cc5n4C[C@@H]4CCO4)CC3)n2)c(F)c1", "target entity": "Glucagon-like peptide 1 receptor (Homo sapiens)", "pEC50": 8.01}
{"mol": "O=C(O)c1cc2c(nc(CN3CCC(Oc4cccc(Cc5ccc(Cl)cc5)n4)CC3)n2C[C@@H]2CCO2)s1", "target entity": "Glucagon-like peptide 1 receptor (Homo sapiens)", "pEC50": 8.58}
{"mol": "O=C(O)c1cc2c(nc(CN3CCC(Oc4cccc(OCc5ccc(Cl)cc5)n4)CC3)n2C[C@@H]2CCO2)s1", "target entity": "Glucagon-like peptide 1 receptor (Homo sapiens)", "pEC50": 8.02}
{"mol": "O=C(O)c1ccc2nc(CN3CCC(Oc4cccc(COc5ccc6cnn(CC(F)F)c6c5)n4)CC3)n(C[C@@H]3CCO3)c2n1", "target entity": "Glucagon-like peptide 1 receptor (Homo sapiens)", "pEC50": 10.07}
{"mol": "O=C(O)c1ccc2nc(CN3CC=C(c4cccc(OCc5ccc(C6CC(F)(F)C6)cc5F)n4)CC3)n(C[C@@H]3CCO3)c2c1", "target entity": "Glucagon-like peptide 1 receptor (Homo sapiens)", "pEC50": 10.23}
{"mol": "N#Cc1ccc(Cc2cccc(OC3CCN(Cc4nc5ccc(C(=O)O)nc5n4C[C@@H]4CCO4)CC3)n2)c2occc12", "target entity": "Glucagon-like peptide 1 receptor (Homo sapiens)", "pEC50": 8.10}
{"mol": "O=C(O)c1ccc2nc(CN3CCC(Oc4cccc(Cc5ccc(Cl)c6c5OCC6)n4)CC3)n(C[C@@H]3CCO3)c2n1", "target entity": "Glucagon-like peptide 1 receptor (Homo sapiens)", "pEC50": 10.33}
{"mol": "Cc1nn(C)c2c(F)c(Cc3cccc(OC4CCN(Cc5nc6ccc(C(=O)O)nc6n5C[C@@H]5CCO5)CC4)n3)ccc12", "target entity": "Glucagon-like peptide 1 receptor (Homo sapiens)", "pEC50": 8.76}
{"mol": "N#Cc1ccc(OCc2nccc(OC3CCN(Cc4nc5sc(C(=O)O)cc5n4C[C@@H]4CCO4)CC3)n2)c(F)c1", "target entity": "Glucagon-like peptide 1 receptor (Homo sapiens)", "pEC50": 9.49}
{"mol": "O=C(O)c1ccc2nc(CN3CC=C(c4cccc(OCc5ccc(CC(F)F)cc5F)n4)CC3)n(C[C@@H]3CCO3)c2n1", "target entity": "Glucagon-like peptide 1 receptor (Homo sapiens)", "pEC50": 9.89}
{"mol": "O=C(O)c1ccc2nc(CN3CCN(c4cccc(OCc5ccc(C6CC(F)(F)C6)cc5F)n4)CC3)n(C[C@@H]3CCO3)c2c1", "target entity": "Glucagon-like peptide 1 receptor (Homo sapiens)", "pEC50": 10.09}
{"mol": "O=C(O)c1ccc2nc(CN3CCC(Oc4cccc(COc5ccc6c(Cl)nn(CC(F)F)c6c5F)n4)CC3)n(C[C@@H]3CCO3)c2n1", "target entity": "Glucagon-like peptide 1 receptor (Homo sapiens)", "pEC50": 9.49}
{"mol": "N#Cc1ccc(Cc2cccc(OC3CCN(Cc4nc5ccc(C(=O)O)cc5n4C[C@@H]4CCO4)CC3)n2)c(F)c1", "target entity": "Glucagon-like peptide 1 receptor (Homo sapiens)", "pEC50": 8.94}
{"mol": "O=C(O)c1cc2c(nc(CN3CCC(Oc4ccnc(Cc5ccc(Cl)cc5)n4)CC3)n2C[C@@H]2CCO2)s1", "target entity": "Glucagon-like peptide 1 receptor (Homo sapiens)", "pEC50": 9.10}
{"mol": "O=C(O)c1ccc2nc(CN3CCC(Oc4cccc(Cc5ccc6cnn(CC(F)F)c6c5F)n4)CC3)n(C[C@@H]3CCO3)c2n1", "target entity": "Glucagon-like peptide 1 receptor (Homo sapiens)", "pEC50": 8.47}
{"mol": "Cn1ncc2ccc(Cc3cccc(OC4CCN(Cc5nc6sc(C(=O)O)cc6n5C[C@@H]5CCO5)CC4)n3)c(F)c21", "target entity": "Glucagon-like peptide 1 receptor (Homo sapiens)", "pEC50": 7.11}
{"mol": "CC1(c2ccc(COc3cccc(-c4ccc(Cc5nc6ccc(C(=O)O)cc6n5C[C@@H]5CCO5)c(F)c4)n3)c(F)c2)CC(F)(F)C1", "target entity": "Glucagon-like peptide 1 receptor (Homo sapiens)", "pEC50": 8.51}
{"mol": "COc1ccc(Cc2cccc(OC3CCN(Cc4nc5sc(C(=O)O)cc5n4C[C@@H]4CCO4)CC3)n2)cc1", "target entity": "Glucagon-like peptide 1 receptor (Homo sapiens)", "pEC50": 7.69}
{"mol": "O=C(O)c1cc(F)c2nc(CN3CC=C(c4cccc(OCc5ccc(CC(F)(F)F)cc5F)n4)CC3)n(C[C@@H]3CCO3)c2c1", "target entity": "Glucagon-like peptide 1 receptor (Homo sapiens)", "pEC50": 10.02}
{"mol": "COc1cc(C#N)ccc1OCc1nccc(OC2CCN(Cc3nc4sc(C(=O)O)cc4n3C[C@@H]3CCO3)CC2)n1", "target entity": "Glucagon-like peptide 1 receptor (Homo sapiens)", "pEC50": 9.35}
{"mol": "O=C(O)c1ccc2nc(CN3CCC(Oc4cccc(COc5ccc6cn[nH]c6c5)n4)CC3)n(C[C@@H]3CCO3)c2n1", "target entity": "Glucagon-like peptide 1 receptor (Homo sapiens)", "pEC50": 9.08}
{"mol": "Cn1ncc2ccc(Cc3cccc(OC4CCN(Cc5nc6c(F)cc(C(=O)O)cc6n5C[C@@H]5CCO5)CC4)n3)c(F)c21", "target entity": "Glucagon-like peptide 1 receptor (Homo sapiens)", "pEC50": 9.02}
{"mol": "O=C(O)c1cc2c(nc(CN3CCC(Oc4ccnc(COc5ccc(Cl)cc5F)n4)CC3)n2C[C@@H]2CCO2)s1", "target entity": "Glucagon-like peptide 1 receptor (Homo sapiens)", "pEC50": 9.70}
{"mol": "O=C(O)c1ccc2nc(CN3CCC(c4cccc(OCc5ccc(CC(F)F)cc5F)n4)CC3)n(C[C@@H]3CCO3)c2c1", "target entity": "Glucagon-like peptide 1 receptor (Homo sapiens)", "pEC50": 9.59}
{"mol": "O=C(O)c1ccc2nc(CN3CCC(Oc4cccc(COc5ccc6cnn(CC(F)F)c6c5F)n4)CC3)n(C[C@@H]3CCO3)c2n1", "target entity": "Glucagon-like peptide 1 receptor (Homo sapiens)", "pEC50": 10.07}
{"mol": "O=C(O)c1cc2c(nc(CN3CCC(Oc4cccc(Cc5ccc(Cl)c6ccoc56)n4)CC3)n2C[C@@H]2CCO2)s1", "target entity": "Glucagon-like peptide 1 receptor (Homo sapiens)", "pEC50": 7.16}
{"mol": "C[C@H]1CN(c2cccc(OCc3ccc(CC(F)F)cc3F)n2)CCN1Cc1nc2c(F)cc(C(=O)O)cc2n1C[C@@H]1CCO1", "target entity": "Glucagon-like peptide 1 receptor (Homo sapiens)", "pEC50": 10.15}
{"mol": "O=C(O)c1ccc2nc(Cc3ccc(-c4cccc(OCc5ccc(C6CC(F)(F)C6)cc5F)n4)cc3)n(C[C@@H]3CCO3)c2c1", "target entity": "Glucagon-like peptide 1 receptor (Homo sapiens)", "pEC50": 10.03}
{"mol": "O=C(O)c1ccc2nc(Cc3ccc(-c4cccc(OCc5ccc(C6CC(F)(F)C6)cc5F)n4)cc3F)n(C[C@@H]3CCO3)c2c1", "target entity": "Glucagon-like peptide 1 receptor (Homo sapiens)", "pEC50": 10.51}
